- study system: Babesia bovis apicoplast DNA polymerase (Bb-apPOL)
- procedure details: In vitro DNA polymerase inhibition assay, Bb-apPOL
- test context: Table 2
recorded endpoint: IC50 (µM)

[
  {
    "molecule": "O=C(O)c1ccc(-c2nc3cc(-c4ccc5nc(-c6ccc(C(=O)O)cc6)[nH]c5c4)ccc3[nH]2)cc1",
    "recorded measurement": 3.7
  },
  {
    "molecule": "COc1ccc(CNC(=O)Cn2nc3c(c2NC(=O)Cc2cccs2)CSC3)cc1",
    "recorded measurement": 1.5
  },
  {
    "molecule": "CCOc1nc2cccc(C(=O)OC(C)OC(=O)OC3CCCCC3)c2n1Cc1ccc(-c2ccccc2-c2nnn[nH]2)cc1 (centres unmarked)",
    "recorded measurement": 30
  },
  {
    "molecule": "OC(C#Cc1ccccc1)c1ccco1 (centres unmarked)",
    "recorded measurement": 2.5
  },
  {
    "molecule": "O=[N+]([O-])/C=C/c1ccc(-c2ccc(Br)cc2)o1",
    "recorded measurement": 15
  }
]

---

Item-by-item account of % inhibition Apol 90'
- study system: P. falciparum apicoplast DNA polymerase (Pf-apPOL) (Plasmodium falciparum)
- procedure details: Fluorescence-based high-throughput DNA polymerase assay (molecular beacon), primary screen and dose-response
- Assay type: biochemical
- test context: DRC-1; 90'; concentration 40

[
  {
    "molecule": "CC1=NNC(=O)C1Oc1ccc(Cl)cc1Cl (centres unmarked) [KU0265591]",
    "% inhibition Apol 90' (%)": 37.9721
  },
  {
    "molecule": "O=c1cc(CN2CCCCC2)c2cc3c(cc2o1)OCO3 [Molecule 56, O=c1cc(CN2CCCCC2)c2c(o1)cc1c(c2)OCO1]",
    "% inhibition Apol 90' (%)": 58.3854
  },
  {
    "molecule": "O=C(O)CC1=NN(c2cccc([N+](=O)[O-])c2)C(=O)C1 [KU0100531]",
    "% inhibition Apol 90' (%)": 46.1706
  },
  {
    "molecule": "Cc1ccc(C)n1-c1ccc(C(=O)NNC(=O)c2ccc3nccnc3c2)cc1 [Molecule 53]",
    "% inhibition Apol 90' (%)": 69.8424
  },
  {
    "molecule": "CCN1C(=O)C(=Cc2cccc(OC)c2O)SC1=S [Molecule 78, CCN1C(=S)SC(=Cc2cccc(c2O)OC)C1=O]",
    "% inhibition Apol 90' (%)": 28.6027
  }
]

---

- study system: P. falciparum apicoplast DNA polymerase (Pf-apPOL) (Plasmodium falciparum, UniProt Q8ILY1)
- Sequence (Q8ILY1 entry or part of it): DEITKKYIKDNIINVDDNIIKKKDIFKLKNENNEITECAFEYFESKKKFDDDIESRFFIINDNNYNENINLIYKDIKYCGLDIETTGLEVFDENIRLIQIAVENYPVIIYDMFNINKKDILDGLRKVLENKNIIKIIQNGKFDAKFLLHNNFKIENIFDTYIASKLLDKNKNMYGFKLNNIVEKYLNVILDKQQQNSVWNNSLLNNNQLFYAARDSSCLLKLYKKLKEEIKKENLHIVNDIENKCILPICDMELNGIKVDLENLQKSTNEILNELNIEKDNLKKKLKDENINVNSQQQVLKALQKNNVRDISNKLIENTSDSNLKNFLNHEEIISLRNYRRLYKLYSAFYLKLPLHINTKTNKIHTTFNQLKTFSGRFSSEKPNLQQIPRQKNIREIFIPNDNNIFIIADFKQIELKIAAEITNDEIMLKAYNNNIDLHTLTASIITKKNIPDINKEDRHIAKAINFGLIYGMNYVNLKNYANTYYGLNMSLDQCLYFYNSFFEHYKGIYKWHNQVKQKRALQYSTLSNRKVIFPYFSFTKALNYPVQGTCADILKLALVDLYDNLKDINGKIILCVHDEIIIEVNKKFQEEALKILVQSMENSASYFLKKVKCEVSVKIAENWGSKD
- procedure details: Fluorescence-based high-throughput DNA polymerase assay (molecular beacon), primary screen and dose-response;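 on % inhibition Apol 40': compound concentration given in µM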
- Format: biochemical
- test context: DRC-2; 40'; concentration 80

[
  {
    "compound": "O=C1N/C(=N/c2ccccc2Cl)S/C1=C/c1ccc([N+](=O)[O-])o1",
    "% inhibition Apol 40', %": 61
  },
  {
    "compound": "O=C1NCCCn2cc(S(=O)(=O)Nc3ccccc3)cc21",
    "% inhibition Apol 40', %": 70
  },
  {
    "compound": "Cc1cccc(CC(=O)N2CCc3c(nc4cc(-c5ccccc5)[nH]n4c3=O)C2)c1",
    "% inhibition Apol 40', %": 62
  },
  {
    "compound": "O=C(Cc1cc(=O)[nH]c(SCc2ccccc2)n1)Nc1ccc2c(c1)OCO2",
    "% inhibition Apol 40', %": 53
  },
  {
    "compound": "O=C(NCC1CCN(C2CCCC2)CC1)C(=O)NC1CCCC1",
    "% inhibition Apol 40', %": 41
  },
  {
    "compound": "O=C(O)c1c(F)c(F)c(-c2c(F)c(F)c(C(=O)O)c(F)c2F)c(F)c1F",
    "% inhibition Apol 40', %": 47
  },
  {
    "compound": "Cc1cccc(-c2nnc3ccc(NS(=O)(=O)c4ccc(C)c(C)c4)nn23)c1",
    "% inhibition Apol 40', %": 53
  },
  {
    "compound": "O=c1[nH]c2ccc([N+](=O)[O-])cc2c(-c2ccccc2)c1Sc1nc2ccccc2o1",
    "% inhibition Apol 40', %": 72
  },
  {
    "compound": "O=C1C(=Cc2ccccc2O)Oc2ccc(O)cc21",
    "% inhibition Apol 40', %": 65
  },
  {
    "compound": "O=C(O)C(=O)Nc1nc(-c2ccc3c(c2)OCCO3)cs1",
    "% inhibition Apol 40', %": 46
  },
  {
    "compound": "O=C(Nc1nnc(-c2ccno2)o1)c1ccc2c(c1)OCO2",
    "% inhibition Apol 40', %": 51
  },
  {
    "compound": "NS(=O)(=O)c1ccc(NC(=O)c2ccc(N3C(=O)CCC3=O)cc2)cc1",
    "% inhibition Apol 40', %": 64
  },
  {
    "compound": "O=C(CCc1csc(NC(=O)Nc2ccccc2)n1)Nc1nc2ccccc2s1",
    "% inhibition Apol 40', %": 49
  },
  {
    "compound": "O=C(O)CCS(=O)(=O)c1ccc(-c2ccc(S(=O)(=O)CCC(=O)O)cc2)cc1",
    "% inhibition Apol 40', %": 63
  },
  {
    "compound": "O=C1N=C(Nc2cccc(Cl)c2Cl)S/C1=C\\c1ccco1 [Molecule 3, O=C1N=C(S/C/1=C\\c1ccco1)Nc1cccc(c1Cl)Cl]",
    "% inhibition Apol 40', %": 25
  },
  {
    "compound": "O=C(Cn1ccc2c(=O)[nH]ccc21)Nc1ccc(Cl)cc1 [Molecule 36, O=C(Cn1ccc2c1cc[nH]c2=O)Nc1ccc(cc1)Cl]",
    "% inhibition Apol 40', %": 56
  },
  {
    "compound": "C#CC(C=CC)OC(=O)c1ccccc1C(=O)O (stereo not shown)",
    "% inhibition Apol 40', %": 69
  },
  {
    "compound": "O=C(Nc1cccc(C(=O)Nc2ccc(S(=O)(=O)[O-])c3cc(S(=O)(=O)[O-])cc(S(=O)(=O)[O-])c23)c1)Nc1cccc(C(=O)Nc2ccc(S(=O)(=O)[O-])c3cc(S(=O)(=O)[O-])cc(S(=O)(=O)[O-])c23)c1.[Na+].[Na+].[Na+].[Na+].[Na+].[Na+]",
    "% inhibition Apol 40', %": 79
  },
  {
    "compound": "CC(=O)c1cc2c(N)c(/C(N)=N/C#N)sc2nc1C",
    "% inhibition Apol 40', %": 55
  },
  {
    "compound": "Cc1nc(/N=N/c2ccc(C(=O)[O-])cc2)c(COP(=O)([O-])[O-])c(C=O)c1O.[Na+].[Na+].[Na+]",
    "% inhibition Apol 40', %": 66
  },
  {
    "compound": "CCN1C(=O)C(=Cc2cccc(OC)c2O)SC1=S",
    "% inhibition Apol 40', %": 41
  },
  {
    "compound": "Cc1ccc(-n2nnc(C(=O)O)c2-c2ccccn2)c(F)c1",
    "% inhibition Apol 40', %": 33
  },
  {
    "compound": "CCCCC(=O)N1CCc2c(nc3cc(-c4ccccc4Cl)[nH]n3c2=O)C1",
    "% inhibition Apol 40', %": 62
  },
  {
    "compound": "O=C1c2ccccc2C(=O)c2c1oc1c3c(ccc21)OCN(C1CCCC1)C3",
    "% inhibition Apol 40', %": 60
  },
  {
    "compound": "COc1ccc2c(c1)C(c1ccccc1OC)CC(=O)O2 (stereo not shown)",
    "% inhibition Apol 40', %": 81
  },
  {
    "compound": "O=C1c2ccccc2C(=O)N1Oc1ccc([N+](=O)[O-])c([N+](=O)[O-])c1",
    "% inhibition Apol 40', %": 62
  },
  {
    "compound": "Cc1cc(C)c2c(c1)C1C=CCC1C(c1ccc(C(=O)O)cc1)N2 (stereo not shown)",
    "% inhibition Apol 40', %": 75
  },
  {
    "compound": "CC(C)(C)OC(=O)COc1ccc2cc(-c3ccccc3)c(=O)oc2c1",
    "% inhibition Apol 40', %": 44
  },
  {
    "compound": "COc1ccc(C(=O)N2CCc3c(nc4cc(-c5ccccc5Cl)[nH]n4c3=O)C2)cn1",
    "% inhibition Apol 40', %": 62
  },
  {
    "compound": "COc1ccc(-c2cc3nc4c(c(=O)n3[nH]2)CCN(C(=O)CCc2ccccc2)C4)cc1",
    "% inhibition Apol 40', %": 58
  },
  {
    "compound": "CCCCSc1nnc2c(n1)OC(c1ccc([N+](=O)[O-])o1)Nc1ccccc1-2 (stereo not shown)",
    "% inhibition Apol 40', %": 42
  }
]

---

- study system: P. falciparum apicoplast DNA polymerase (Pf-apPOL) (Plasmodium falciparum, UniProt Q8ILY1)
- procedure details: Fluorescence-based high-throughput DNA polymerase assay (molecular beacon), primary screen and dose-response;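 on % inhibition apPOL 180': test concentration in µM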
- Assay type: biochemical
- test context: DRC-2; 180'; concentration 40
recorded endpoint: % inhibition apPOL 180' (%)

[
  {
    "molecule": "N#Cc1c(C2CCCCC2)nc(Sc2ccc(C(F)(F)F)cc2[N+](=O)[O-])[nH]c1=O",
    "recorded endpoint": "% inhibition apPOL 180'",
    "recorded measurement": 77
  },
  {
    "molecule": "COc1ccc(S(=O)(=O)/N=C2\\NC(=O)/C(=C3\\C(=O)Nc4ccc([N+](=O)[O-])cc43)S2)cc1",
    "recorded endpoint": "% inhibition apPOL 180'",
    "recorded measurement": 72
  },
  {
    "molecule": "CCCc1ccc(Oc2coc3cc(OC)ccc3c2=O)cc1",
    "recorded endpoint": "% inhibition apPOL 180'",
    "recorded measurement": 22
  },
  {
    "molecule": "O=C(Nc1c2c(nn1-c1ccc(Oc3ccccc3)cc1)CSC2)c1ccco1",
    "recorded endpoint": "% inhibition apPOL 180'",
    "recorded measurement": 69
  },
  {
    "molecule": "Cc1ccccc1NC(=O)Cn1ccc2c(=O)[nH]ccc21 [Molecule 50, O=C(Cn1ccc2c1cc[nH]c2=O)Nc1ccc(cc1)C]",
    "recorded endpoint": "% inhibition apPOL 180'",
    "recorded measurement": 78
  },
  {
    "molecule": "O=C1N=C(Nc2cccc(Cl)c2Cl)S/C1=C\\c1ccco1 [Molecule 3, O=C1N=C(S/C/1=C\\c1ccco1)Nc1cccc(c1Cl)Cl]",
    "recorded endpoint": "% inhibition apPOL 180'",
    "recorded measurement": 60
  },
  {
    "molecule": "Cn1nc(-c2nnc(-c3ccccc3F)o2)c2c1CCN(C(=O)c1ccccc1Cl)C2",
    "recorded endpoint": "% inhibition apPOL 180'",
    "recorded measurement": 49
  },
  {
    "molecule": "O=C(c1c[nH]c2ncccc12)N1CCCC1 [Molecule 63, O=C(c1c[nH]c2c1cccn2)N1CCCC1]",
    "recorded endpoint": "% inhibition apPOL 180'",
    "recorded measurement": 65
  },
  {
    "molecule": "O=c1nc(/C=C/c2ccc(Br)cc2)oc2ccccc12",
    "recorded endpoint": "% inhibition apPOL 180'",
    "recorded measurement": 79
  },
  {
    "molecule": "O=C1N/C(=N/c2ccccc2Cl)S/C1=C/c1ccc([N+](=O)[O-])o1",
    "recorded endpoint": "% inhibition apPOL 180'",
    "recorded measurement": 67
  },
  {
    "molecule": "O=c1cc(CN2CCCCC2)c2cc3c(cc2o1)OCO3",
    "recorded endpoint": "% inhibition apPOL 180'",
    "recorded measurement": 45
  },
  {
    "molecule": "COc1ccc2c(c1)C(c1ccccc1OC)CC(=O)O2 (stereo not shown)",
    "recorded endpoint": "% inhibition apPOL 180'",
    "recorded measurement": 75
  },
  {
    "molecule": "Cc1cccc(NC(=O)Cn2ccc3c(=O)[nH]ccc32)c1C [Molecule 11, O=C(Cn1ccc2c1cc[nH]c2=O)Nc1cccc(c1C)C]",
    "recorded endpoint": "% inhibition apPOL 180'",
    "recorded measurement": 77
  },
  {
    "molecule": "O=C(Nc1cccc(Cl)c1)Nc1nnc(-c2ccncc2)s1",
    "recorded endpoint": "% inhibition apPOL 180'",
    "recorded measurement": 70
  },
  {
    "molecule": "CSC1=C(C#N)C(=C(C#N)C#N)NC(c2ccccc2)=N1 [Molecule 2, CSc1nc([nH]c(=C(C#N)C#N)c1C#N)c1ccccc1]",
    "recorded endpoint": "% inhibition apPOL 180'",
    "recorded measurement": 67
  },
  {
    "molecule": "CN(C)C1C(c2ccccc2)=C(c2ccccc2)SC(c2ccccc2)C1[N+](=O)[O-] (stereo not shown)",
    "recorded endpoint": "% inhibition apPOL 180'",
    "recorded measurement": 58
  }
]
